- study_system: human Wip1 protein (rWip1, catalytic domain, residues 1-420) (Homo sapiens)
- Sequence (O15297 1-420): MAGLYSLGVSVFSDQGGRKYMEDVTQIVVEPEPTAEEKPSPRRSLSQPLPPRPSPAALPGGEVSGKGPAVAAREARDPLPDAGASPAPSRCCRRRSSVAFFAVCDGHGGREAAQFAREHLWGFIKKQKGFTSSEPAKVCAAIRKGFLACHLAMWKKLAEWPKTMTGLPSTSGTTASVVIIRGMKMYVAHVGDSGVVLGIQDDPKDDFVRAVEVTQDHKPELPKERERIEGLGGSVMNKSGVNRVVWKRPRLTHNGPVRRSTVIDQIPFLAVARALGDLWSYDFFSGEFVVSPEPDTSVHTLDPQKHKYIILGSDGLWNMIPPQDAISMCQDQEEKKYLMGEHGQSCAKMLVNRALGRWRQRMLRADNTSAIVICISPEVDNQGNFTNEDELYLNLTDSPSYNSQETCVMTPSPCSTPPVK
- assay_name: Wip1 phosphatase assay (malachite green/molybdate-based)
measure: Ki (µM)

Worked cases, answers included:
compound: Cc1c(C(N)=O)c(-c2ccc(OP(=O)(O)O)c(Cl)c2)c(CC(C)C)n1CCCOP(=O)(O)O
value: 28

compound: CCCC(C)Cc1c(-c2ccc(OP(=O)(O)O)c(Cl)c2)c(C(N)=O)c(CCc2ccc(Cl)cc2)n1CCCOP(=O)(O)O (stereo not drawn)
value: 5.7

compound: CCCC(C)Cc1c(-c2ccc(OP(=O)(O)O)c(Cl)c2)c(C(N)=O)c(Cc2ccc(F)cc2)n1CCCOP(=O)(O)O (stereo not drawn)
value: 16

compound: CCC[C@@H](C)Cc1c(-c2ccc(OP(=O)(O)O)c(Cl)c2)c(C(N)=O)c(CCc2ccc(Cl)cc2)n1CCCOP(=O)(O)O
value: 10

compound: Cc1c(C(N)=O)c(-c2ccc(OP(=O)(O)O)cc2)c(CC2CCCCC2)n1CCOP(=O)(O)O
value: 81

[I] CC(C)Cc1c(-c2ccc(OP(=O)(O)O)c(Cl)c2)c(C(N)=O)c(Cc2ccc(Cl)cc2)n1CCCOP(=O)(O)O
[II] CCCC(C)Cc1c(-c2ccc(OP(=O)(O)O)c(Cl)c2)c(C(N)=O)c(C)n1CCOP(=O)(O)O (stereo not drawn)
[III] CCCC(C)Cc1c(-c2ccc(OP(=O)(O)O)cc2)c(C(N)=O)c(C)n1CCOP(=O)(O)O (stereo not drawn)
[IV] CCCC(C)Cc1c(-c2ccc(OP(=O)(O)O)c(Cl)c2)c(C(N)=O)c(CCc2ccccc2)n1CCCOP(=O)(O)O (stereo not drawn)
-- ask Please give the order of these compounds when sorted by Ki, largest value leading. Note for the reader: the ranking is given by listing the labels in the order requested.
-- reply III, II, I, IV
(III: 61 µM, II: 40 µM, I: 22 µM, IV: 15 µM)
